Kindly state kon for each of the entries shown.
testSystem: T1, pCD163-SRCR1-9-huFc (porcine, UniProt Q2VL90 47-1028, limits assumed)
T1 construct: also called pCD163:SRCR1-9-Fc; pCD163SRCR1-9-Fc; not shown: human Fc (huFc)
T1 sequence: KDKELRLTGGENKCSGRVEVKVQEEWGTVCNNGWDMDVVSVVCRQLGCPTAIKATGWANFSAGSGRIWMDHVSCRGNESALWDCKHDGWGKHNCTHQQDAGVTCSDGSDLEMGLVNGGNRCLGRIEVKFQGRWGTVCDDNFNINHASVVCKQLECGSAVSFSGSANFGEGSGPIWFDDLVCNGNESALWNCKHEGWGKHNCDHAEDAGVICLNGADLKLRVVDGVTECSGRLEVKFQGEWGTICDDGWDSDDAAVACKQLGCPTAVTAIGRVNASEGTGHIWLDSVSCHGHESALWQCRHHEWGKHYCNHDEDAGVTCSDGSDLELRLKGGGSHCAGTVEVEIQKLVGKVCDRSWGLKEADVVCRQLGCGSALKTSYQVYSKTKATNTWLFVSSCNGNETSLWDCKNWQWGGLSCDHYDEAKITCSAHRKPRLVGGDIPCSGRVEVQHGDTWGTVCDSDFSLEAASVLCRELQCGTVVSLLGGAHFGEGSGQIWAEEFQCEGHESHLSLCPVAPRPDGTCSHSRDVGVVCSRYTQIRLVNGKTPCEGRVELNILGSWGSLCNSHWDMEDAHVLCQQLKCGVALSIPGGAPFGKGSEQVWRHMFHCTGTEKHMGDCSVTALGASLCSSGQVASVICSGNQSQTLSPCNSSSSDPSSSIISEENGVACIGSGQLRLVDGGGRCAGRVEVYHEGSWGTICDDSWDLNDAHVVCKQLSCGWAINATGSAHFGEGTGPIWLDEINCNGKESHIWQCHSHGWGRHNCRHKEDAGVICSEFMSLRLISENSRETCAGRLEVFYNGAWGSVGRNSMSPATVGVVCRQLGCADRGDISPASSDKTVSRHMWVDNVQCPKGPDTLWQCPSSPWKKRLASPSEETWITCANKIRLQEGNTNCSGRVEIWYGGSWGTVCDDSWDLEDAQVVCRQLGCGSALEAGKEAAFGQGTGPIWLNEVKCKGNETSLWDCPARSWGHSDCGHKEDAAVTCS
assayProcedure: SPR (Biacore 3000), antigen amine-coupled on CM5, VHH injected, pH 7.4
Answers are plain numbers, in M⁻¹ s⁻¹.

binder: VHH 017 (3D03) (VHH, Llama single domain antibody; also called 29(#17); VHCDR3 29(#17); not shown: tags: c-myc tag in periplasmic extract (ELISA, FACS); FLAG and His tags in purified VHH (SPR, infection assays)) VHH: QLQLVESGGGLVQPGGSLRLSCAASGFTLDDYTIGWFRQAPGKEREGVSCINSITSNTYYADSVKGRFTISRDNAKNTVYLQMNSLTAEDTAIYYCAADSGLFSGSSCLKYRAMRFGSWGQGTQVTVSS
kon, M⁻¹ s⁻¹: 1.1e+06

binder: VHH 023 (4E10) (VHH, Llama single domain antibody; also called 70(#23); VHCDR3 70(#23); not shown: tags: c-myc tag in periplasmic extract (ELISA, FACS); FLAG and His tags in purified VHH (SPR, infection assays)) VHH: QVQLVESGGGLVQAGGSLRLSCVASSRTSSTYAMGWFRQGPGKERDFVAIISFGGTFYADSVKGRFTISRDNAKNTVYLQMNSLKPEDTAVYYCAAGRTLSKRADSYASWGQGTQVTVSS
kon, M⁻¹ s⁻¹: 2.99e+06

binder: VHH 019 (3E11) (VHH, Llama single domain antibody; also called 47(#19); VHCDR3 47(#19); not shown: tags: c-myc tag in periplasmic extract (ELISA, FACS); FLAG and His tags in purified VHH (SPR, infection assays)) VHH: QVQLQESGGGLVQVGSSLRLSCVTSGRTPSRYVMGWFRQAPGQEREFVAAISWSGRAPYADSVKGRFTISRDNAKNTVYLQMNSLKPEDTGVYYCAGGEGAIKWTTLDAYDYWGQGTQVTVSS
kon, M⁻¹ s⁻¹: 1.16e+06

binder: VHH 012 (2C07) (VHH, Llama single domain antibody; also called 41(#12); VHCDR3 41(#12); not shown: tags: c-myc tag in periplasmic extract (ELISA, FACS); FLAG and His tags in purified VHH (SPR, infection assays)) VHH: QLQLVESGGGLVQAGGSLRLSCVASGRTFSRYAMGWFRQAPGKEREFVAAIAWSTGSTYYANSVKGRFAISGDNAKNTVYLQMNSLKPEDTAVYYCAAETRYCSGFGCLDPRTYGSWGQGTQVTVSS
kon, M⁻¹ s⁻¹: 5.97e+06

binder: VHH 002 (1B04) (VHH, Llama single domain antibody; also called 76(#2); VHCDR3 76(#2); not shown: tags: c-myc tag in periplasmic extract (ELISA, FACS); FLAG and His tags in purified VHH (SPR, infection assays)) VHH: QVQLVESGGGLVQAGGSLRLSCAASGLTFVTYSMGWFRQAPGKEREFVAAHRWSGSAYYAEHADSVEGRFTISRDYAKNMLYLQMNSLKHEDTAVYYCAAGVGSAAQYRYWGRGTQVTVSS
kon, M⁻¹ s⁻¹: 539000

For the 4 binders below, give their kon values.
1. VHH 020 (3H11) (VHH, Llama single domain antibody; also called 48(#20); VHCDR3 48(#20); not shown: tags: c-myc tag in periplasmic extract (ELISA, FACS); FLAG and His tags in purified VHH (SPR, infection assays)) VHH: QVQLQESGGGLVQVGGSLRLSCVASGRTPSRYVMGWFRQAPGQEREFVAGIAWSGRAPYADSVKGRFVISRDSAKNTVYLQMNSLKSEDTGVYYCAGGEGAILWTTPGAYNYWGQGTQVTVSS
2. VHH 011 (2B06) (VHH, Llama single domain antibody; also called 57(#11); VHCDR3 57(#11); not shown: tags: c-myc tag in periplasmic extract (ELISA, FACS); FLAG and His tags in purified VHH (SPR, infection assays)) VHH: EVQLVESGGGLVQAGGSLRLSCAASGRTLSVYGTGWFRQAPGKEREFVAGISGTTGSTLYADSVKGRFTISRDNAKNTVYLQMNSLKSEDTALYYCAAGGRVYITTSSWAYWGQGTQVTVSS
3. VHH 015 (2G01) (VHH, Llama single domain antibody; also called 150(#15); VHCDR3 150(#15); not shown: tags: c-myc tag in periplasmic extract (ELISA, FACS); FLAG and His tags in purified VHH (SPR, infection assays)) VHH: QVQLVESGGGLVQAGDTLRLSCTASGRTFSSYSMGWFRQAPGKEREFVAAITWNGYITNYADSVKGRFTISRDNTKNTVFLQMNSLKPEETAVYYCAATTFSTTSPISRTYNYWGPGTQVTVSS
4. VHH 016 (2H11) (VHH, Llama single domain antibody; also called 77(#16); VHCDR3 77(#16); not shown: tags: c-myc tag in periplasmic extract (ELISA, FACS); FLAG and His tags in purified VHH (SPR, infection assays)) VHH: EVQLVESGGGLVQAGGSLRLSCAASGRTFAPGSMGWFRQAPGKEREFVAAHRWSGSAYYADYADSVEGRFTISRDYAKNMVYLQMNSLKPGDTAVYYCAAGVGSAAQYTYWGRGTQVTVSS

[945000, 140000, 396000, 219000]
